Values were extracted from patent US20190308956A1.

Test system: HAdV5-GFP
Protocol: Entry assay, HAdV5-GFP in A549 cells (GFP expression)
Format: cell-based
Recorded endpoint: Starting Inhibition assay
Just the number.

// known answers, use as guide
INSERT INTO assay_data (compound, value) VALUES
  ('CC1CN(C(=O)OC(C)(C)C)CCN1C(=S)Nc1ccc(F)cc1 (stereo not drawn)', 75.54),
  ('CC1CN(C(=O)Cc2ccccc2)CCN1C(=S)Nc1ccc(C#N)cc1 (stereo not drawn)', 60.06);

Memo: CC1CN(C(=O)Cc2ccccc2)CCN1C(=S)Nc1ccc(F)cc1 (stereo not drawn) , reported Starting Inhibition assay: 72.06

// recorded Starting Inhibition assay for CC1CN(C(=O)OC(C)(C)C)CCN1C(=S)Nc1ccc(C(F)(F)F)cc1 (stereo not drawn) : 43.24

// Cc1ccc(NC(=S)N2CCN(C(=O)OC(C)(C)C)CC2C)cc1 (stereo not drawn) : Starting Inhibition assay value = 56.61

Looking up CC1CN(C(=O)OC(C)(C)C)CCN1C(=S)Nc1cc(C(F)(F)F)cc(C(F)(F)F)c1 (stereo not drawn) , I found its Starting Inhibition assay recorded as 71.76
